Provenance of the data: patent US10138255B2

Test system: HIV-1 (H9IIIB strain)
Experiment: Cell-Based HIV Infection Assay Using a Reporter (MT4-GFP cells)
Details: Human immunodeficiency virus 1, inflection point (IP) of viral growth inhibition; MT4-GFP cells infected with HIV-1 H9IIIB; 50% normal human serum; mean of at least two independent experiments; read-out: Cell Based IP (50% NHS)
REPORTED_PROPERTY: pEC50
Please treat pEC50 as minus the base-10 logarithm of the molar concentration.

Take a look at these entries with their results.
# COMPOUND, RECORDED_VALUE
rows = [
    ("COC(=O)N[C@H](C(=O)Nc1cccc(F)c1OCC1CNC2CCCS(=O)(=O)N1C2)[C@@H](c1ccc(F)cc1)c1cc(F)cc(F)c1 (stereo partly drawn)", 6.82),
    ("COC(=O)N[C@H](C(=O)Nc1cccc(F)c1CCC1CNC2CCCS(=O)(=O)N1C2)[C@H](c1cncc(F)c1)c1ccc(Cl)c(F)c1 (stereo partly drawn)", 8.04),
    ("CO[C@H](C(C)C)[C@H](c1ccc(F)cc1)[C@H](N)C(=O)Nc1cccc(F)c1CCC1CN[C@@H]2CCCS(=O)(=O)N1C2 (stereo partly drawn)", 7.04),
]

Input line: Kindly indicate its recorded pEC50. Item: CC1(C)C[C@H]([C@H](c2ccc(Cl)cc2)[C@H](N)C(=O)Nc2cccc(F)c2CC[C@H]2CN[C@@H]3CCS(=O)(=O)N2C3)CCO1
Output line: 7.60

Input line: Kindly indicate its recorded pEC50. Item: COc1ccc([C@H](c2ccc(F)c(F)c2)[C@H](N)C(=O)Nc2cccc(F)c2CCC2CNC3CCCS(=O)(=O)N2C3)cn1 (stereo partly drawn)
Output line: 8.09

Input line: Kindly indicate its recorded pEC50. Item: COC(=O)N[C@H](C(=O)Nc1cccc(F)c1CCC1CNC2CCCS(=O)(=O)N1C2)[C@@H](c1ccc(Cl)cc1)c1ccc(C(C)(F)F)nc1 (stereo partly drawn)
Output line: 7.74
